Each recorded value in this set is attributed to PubChem BioAssay (NCI).

test system: COLO 205 colon; assay: NCI tumour cell line growth inhibition, 48 h; in the data active means GI50 below about 0.43 µM; inactive means the rest
Hello, when you answer, please use one of the following outcomes: 1.0 (active), 0.0 (inactive)

As a guide, the following entries are already answered.
[[record]]
compound_structure = "O=C(/C=C\\n1cnc(-c2cc(C(F)(F)F)cc(C(F)(F)F)c2)n1)N1CC(F)(F)C1"
assigned_category = 1.0

[[record]]
compound_structure = "Nc1ccc(-c2ccc3ncc4ccc(=O)n(-c5cccc(C(F)(F)F)c5)c4c3c2)cn1"
assigned_category = 1.0

[[record]]
compound_structure = "Cc1nc(Sc2nc3ccc([N+](=O)[O-])cc3s2)sc1C"
assigned_category = 0.0

[[record]]
compound_structure = "COc1ccc(-c2n[nH]nc2-c2cc(OC)c3c(c2)OCO3)cc1"
assigned_category = 1.0

[[record]]
compound_structure = "CC(=O)O[C@H](C[C@H](C(C)C)N(C)C(=O)[C@@H](NC(=O)[C@H]1CCCCN1C)C(C)C)c1cccc(C(=O)N[C@@H](Cc2ccccc2)C[C@H](C)C(=O)O)n1"
assigned_category = 1.0

[[record]]
compound_structure = "CC1=C(C#N)C(/C=C(\\Cl)c2ccc(F)cc2)C(C#N)=C(C)N1"
assigned_category = 0.0


In: Which result was noted for this compound in the test: O=C(O)Cn1ccc2ccccc21
Out: 0.0

In: Which result was noted for this compound in the test: COc1ccc(-c2nc(N)c(C#N)c3c2CCOc2c-3ccc3ccccc23)cc1
Out: 0.0

---

Reported TGI values follow for various compounds
test system: K-562 leukemia; test: NCI tumour cell line growth inhibition, 48 h

Examples from the recorded data:
[[record]]
compound = "C#CC(O)/C=C/C(O)CCCC(O)CC#CC(O)C#CCCCCC(O)/C=C/CCCC(O)/C=C/CCCCCCCCCCCCCC(O)C(O)C#CC(=O)O (stereo not drawn)"
readout = "TGI"
test_value = "> 25 µM"

[[record]]
compound = "CN1CCCN2CCN(C)CCCN(CC1)CC2"
readout = "TGI"
test_value = "> 100 µM"

[[record]]
compound = "COc1ccc2[nH]c(C(=O)OCc3ccc4cccc(O)c4n3)cc2c1"
readout = "TGI"
test_value = "2.66 µM"

[[record]]
compound = "CCCCN1C(=O)/C(=c2\\sc3n(c2=O)C2C(NN=3)N(CC)C(=O)N2CC)c2ccccc21 (stereo not drawn)"
readout = "TGI"
test_value = "> 100 µM"

[[record]]
compound = "Cc1cn(C2OC(CO)C(O)C2F)c(=O)[nH]c1=O (stereo not drawn)"
readout = "TGI"
test_value = "> 100 µM"

[[record]]
compound = "COc1cc2c(c(OC)c1OC)-c1ccc(SC)c(=O)cc1C(CC(=O)Oc1cccc(F)c1)C2 (stereo not drawn)"
readout = "TGI"
test_value = "> 52.4 µM"

[[record]]
compound = "CC(=O)OC1C(O[C@H]2CC[C@]34O[C@]35CC[C@]3(C)C(C6(C)CC[C@@H](C(C)(C)O)O6)[C@@H](O)CC3(C)[C@@H]5CC(OC3OC(CO)C(O)C(O)C3O)C4C2(C)C)OCC(O)C1O (stereo partly drawn)"
readout = "TGI"
test_value = "> 74.8 µM"


In: What does the record list as TGI for COc1cc(CN(c2ccc(C)cc2)C2OC(=O)c3ccccc32)cc(OC)c1OC (stereo not drawn) ?
Out: > 100 µM
